Origin of measurements: paper PMC8393646

Target: SHMT1 (cytosolic serine hydroxymethyltransferase) (Homo sapiens, UniProt P34896)
Sequence (P34896 2-483): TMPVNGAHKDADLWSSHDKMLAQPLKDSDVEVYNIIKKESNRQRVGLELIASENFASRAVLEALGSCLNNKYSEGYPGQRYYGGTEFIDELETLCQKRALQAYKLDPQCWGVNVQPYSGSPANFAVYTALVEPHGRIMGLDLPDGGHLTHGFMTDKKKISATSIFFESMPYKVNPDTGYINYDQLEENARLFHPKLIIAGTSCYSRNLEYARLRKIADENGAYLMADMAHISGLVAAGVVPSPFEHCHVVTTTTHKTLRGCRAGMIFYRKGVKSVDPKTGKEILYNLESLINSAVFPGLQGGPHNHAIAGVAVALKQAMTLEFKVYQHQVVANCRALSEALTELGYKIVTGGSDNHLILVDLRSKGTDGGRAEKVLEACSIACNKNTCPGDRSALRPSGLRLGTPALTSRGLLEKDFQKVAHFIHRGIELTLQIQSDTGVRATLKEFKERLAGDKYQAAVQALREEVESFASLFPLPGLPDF
Test: spectrophotometric quinonoid-intermediate assay ([…] nm) with purified recombinant enzyme
pKi: −log10 of the molar value. Counter-ions that a name gives are not always drawn.

molecule: CN(C)C(=N)N=C(N)N [MET, 1,1-dimethylbiguanide hydrochloride]
pKi: 1.00

---

Molecular target: SHMT2 (mitochondrial serine hydroxymethyltransferase) (Homo sapiens, UniProt P34897)
Assay: spectrophotometric quinonoid-intermediate assay ([…] nm) with purified recombinant enzyme, mixed-type inhibition fit; supported by DSF
Counter-ions that a name gives are not always drawn.

compound: CN(C)C(=N)N=C(N)N [MET, 1,1-dimethylbiguanide hydrochloride]
Ki [mM]: 13.3

---

Molecular target: UniProt:P34897
Sequence (P34897 30-504): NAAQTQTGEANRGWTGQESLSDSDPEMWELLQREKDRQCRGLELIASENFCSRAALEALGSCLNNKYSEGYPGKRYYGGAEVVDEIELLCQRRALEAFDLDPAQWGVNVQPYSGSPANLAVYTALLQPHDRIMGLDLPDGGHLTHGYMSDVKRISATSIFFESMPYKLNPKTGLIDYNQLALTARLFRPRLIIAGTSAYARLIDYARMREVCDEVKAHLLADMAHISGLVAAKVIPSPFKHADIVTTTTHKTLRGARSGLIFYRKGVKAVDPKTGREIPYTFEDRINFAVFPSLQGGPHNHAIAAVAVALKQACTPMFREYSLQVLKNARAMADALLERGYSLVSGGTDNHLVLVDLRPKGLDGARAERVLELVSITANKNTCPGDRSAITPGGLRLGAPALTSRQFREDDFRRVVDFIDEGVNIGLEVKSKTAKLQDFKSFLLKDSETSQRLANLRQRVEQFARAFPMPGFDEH

compound: Cc1ncc(COP(=O)(O)O)c(C=O)c1O [PLP, pyridoxal-5′-phosphate]
unit: nM
Kd: 300
